# credit: patent US20190100534A1

Test system: KP (URMC-1)
procedure.text: MIC determination
Assay type: cell-based, Klebsiella pneumoniae
details: CAMH broth, 20 μM Apo-Transferrin, 37° C., 18 hours
measured.attribute: Minimum Inhibitory Concentrations, KP (URMC-1) (microgram/mL)
Report the figure in microgram/mL without appending any unit label.

| molecule | readout.number |
| --- | --- |
| CC(C)(O/N=C(\C(=O)N[C@@H]1C(=O)N2C(C(=O)O)=C(C=Cc3ccc(C[N+]4(C)Cc5cc(O)c(O)c(Cl)c5C4)cc3)CS[C@H]12)c1csc(N)n1)C(=O)O (mixture of isomers) | 0.13 |

Problem: What value of measured Minimum Inhibitory Concentrations, KP (URMC-1) is listed for CC(C)(O/N=C(\C(=O)N[C@@H]1C(=O)N2C(C(=O)O)=C(C=Cc3ccc(C[N+]4(C)Cc5c(Cl)c(O)c(O)c(Cl)c5C4)cc3)CS[C@H]12)c1csc(N)n1)C(=O)O (mixture of isomers) ?
Result: 0.25

Problem: Query: Minimum Inhibitory Concentrations, KP (URMC-1); subject: CC(C)(O/N=C(\C(=O)N[C@@H]1C(=O)N2C(C(=O)O)=C(C=Cc3ccc(C[N+]4(C)CCc5cc(O)c(O)cc5C4)cc3)CS[C@H]12)c1csc(N)n1)C(=O)O (mixture of isomers)
Result: 0.13
